Molecular target: T1, HER2-ECD-Fc (human, UniProt P04626 23-652)
T1 construct: extracellular domain; Produced in FreeStyle 293F cells; also called HER2-ECD Fc fusion protein
Assay: ELISA on HER2-ECD-Fc; antibody at 5 × 10^-1 µg/mL
readout_name: absorbance
Lab note: write the figure by itself, no unit.

Noted for hz2G10 (antibody, V domains shown, Humanized antibody, detected with anti-human IgG-HRP; Only the variable domains are tied to the name; also called humanized 2G10 antibody) VH: EVQLVESGGGLVQPGGSLRLSCAASGFTFSDYYMYWVRQAPGKGLEWVAYINSGGGSTYYPDTVKGRFTISRDNAKNSLYLQMNSLRAEDTAVYYCAREALYDYDYAMDYWGQGTTVTVSS VL: DIVMTQSPLSLSVTPGQPASISCKSSQSLLYSNGKTYLNWLLQKPGQSPQRLIYLVSKLDSGVPDRFSGSGSGTDFTLKISRVEAEDVGVYYCVQGTHFPLTFGGGTKVEIK : its absorbance reads 2.69
